protocolText: Oral bioavailability after paroral administration of 10 (mg/kg) polyethelene glycol in dog was determined
Assay type: ADME, organism-based, Canis lupus familiaris
experimentalSetup: in vivo
measuredMetric: bioavailability (%)

O=C(C(=O)N1CCN(C(=O)c2ccccc2)CC1)c1c[nH]c2cccc(F)c12    100

----------
protocolText: The total clearance time in rat was determined
Type: ADME, organism-based
experimentalSetup: in vivo, read-out: CLtotal
Recorded measurements of clearance, one per entry
measuredMetric: clearance (mL/min/kg)

O=C(C(=O)N1CCN(C(=O)c2ccccc2)CC1)c1c[nH]c2cccc(F)c12    48
COc1ccnc2[nH]cc(C(=O)C(=O)N3CCN(C(=O)c4ccccc4)C[C@H]3C)c12    32

----------
protocolText: The maximum plasma concentration of compound after paroral administration of 10 (mg/kg) polyethelene glycol in monkey was determined
Assay type: ADME, organism-based
Design: dose 10 mg/kg, route oral
experimentalSetup: simiiformes, po
measuredMetric: Cmax (µM)

O=C(C(=O)N1CCN(C(=O)c2ccccc2)CC1)c1c[nH]c2cccc(F)c12    34

----------
protocolText: The volume of distribution of compound a was determined in dog
Assay type: ADME, organism-based, Canis lupus familiaris
experimentalSetup: in vivo, read-out: Vss
measuredMetric: Vd (L/kg)

O=C(C(=O)N1CCN(C(=O)c2ccccc2)CC1)c1c[nH]c2cccc(F)c12    1.8

----------
protocolText: The total clearance time in dog was determined
Format: ADME, organism-based, Canis lupus familiaris
experimentalSetup: in vivo, read-out: CLtotal
Recorded measurements of clearance, one per entry
measuredMetric: clearance

COc1ccnc2[nH]cc(C(=O)C(=O)N3CCN(C(=O)c4ccccc4)C[C@H]3C)c12    5.2 mL/min/kg
O=C(C(=O)N1CCN(C(=O)c2ccccc2)CC1)c1c[nH]c2cccc(F)c12    2.4 mL/min/kg

----------
protocolText: The total clearance time in monkey was determined
Assay type: ADME, organism-based
experimentalSetup: simiiformes, in vivo; read-out: CLtotal
measuredMetric: clearance (mL/min/kg)

O=C(C(=O)N1CCN(C(=O)c2ccccc2)CC1)c1c[nH]c2cccc(F)c12    3.1
COc1ccnc2[nH]cc(C(=O)C(=O)N3CCN(C(=O)c4ccccc4)C[C@H]3C)c12    10

----------
protocolText: The maximum plasma concentration of compound after paroral administration of 3.4(mg/kg) polyethelene glycol in monkey was determined
Assay type: ADME, organism-based
Set-up: dose 3.4 mg/kg, route oral
experimentalSetup: simiiformes, po
measuredMetric: Cmax (nM)

COc1ccnc2[nH]cc(C(=O)C(=O)N3CCN(C(=O)c4ccccc4)C[C@H]3C)c12    510

----------
protocolText: The volume of distribution of compound against rat was determined
Assay type: ADME, organism-based
experimentalSetup: in vivo, read-out: Vss
measuredMetric: Vd (L/kg)

COc1ccnc2[nH]cc(C(=O)C(=O)N3CCN(C(=O)c4ccccc4)C[C@H]3C)c12    0.56

----------
protocolText: The maximum plasma concentration of compound after paroral administration of 5(mg/kg) polyethelene glycol in rat was determined
Type: ADME, organism-based
Parameters: dose 5 mg/kg, route oral
experimentalSetup: po
measuredMetric: Cmax (µM)

COc1ccnc2[nH]cc(C(=O)C(=O)N3CCN(C(=O)c4ccccc4)C[C@H]3C)c12    0.22

----------
protocolText: Oral bioavailability after paroral administration of 3.4(mg/kg) polyethelene glycol in monkey was determined
Format: ADME, organism-based
experimentalSetup: primates, in vivo
measuredMetric: bioavailability (%)

COc1ccnc2[nH]cc(C(=O)C(=O)N3CCN(C(=O)c4ccccc4)C[C@H]3C)c12    24
